- Tested on: HeLa
- ASSAY_DETAILS: Cytotoxicity against human HeLa cells after […] by MTT assay
- Format: functional, cell-based
- SETTINGS: hela
ASSAY_ENDPOINT: IC50 (nM)

CC(C)=CCCC1(C)C=Cc2c(O)c3c(c(CC=C(C)C)c2O1)O[C@]12C(C3=O)C(O)[C@@H]3C[C@H]1C(C)(C)O[C@@]2(C/C=C(/C)C(=O)O)C3=O (stereo in doubt; 14) :: 630
